- Tested on: SK-OV-3 ovarian
- measurement_description: NCI tumour cell line growth inhibition, 48 h
Please provide measured TGI for the entries that follow.
Give just the number in µM; leave the unit off.

Name the recorded TGI for O=C1/C(=C/c2ccc(Cl)cc2)CCCc2ccc(F)cc21 .
69.4

Name the recorded TGI for S=c1[nH]nc(Cn2c3ccc(Br)cc3c3nc4ccccc4nc32)n1C1CCCCC1 .
83.7

Name the recorded TGI for COc1cc(-c2csc(NC(=O)c3cc(C(F)(F)F)cc(C(F)(F)F)c3)n2)cc(OC)c1OC .
9.76

Name the recorded TGI for Cc1cc2c(C(C)C)c(O)c(O)c(C=Nc3cc(C(F)(F)F)ccc3Cl)c2c(O)c1-c1c(C)cc2c(C(C)C)c(O)c(O)c(C=Nc3cc(C(F)(F)F)ccc3Cl)c2c1O .
54

----------
Please provide measured TGI for the entries that follow.
- System: NCI-H23 lung
- measurement_description: NCI tumour cell line growth inhibition, 48 h

Name the recorded TGI for COc1cc2[nH]c(=O)c3cc(-c4ccccc4)cc4c(Cl)nc(c1OC)c2c43 .
47.5 µM

Name the recorded TGI for CC(C)(C)c1cc(/C=C2/NC(=O)NC2=O)cc(C(C)(C)C)c1O .
30.6 µM

Name the recorded TGI for O=c1c(-c2ccccc2)c(SCCN2CCCCCC2)n(-c2ccccc2)c(=S)n1-c1ccccc1 .
> 100 µM

Name the recorded TGI for CCC1(Br)C(=O)NC(=O)N(C2CC(O)C(CO)O2)C1N=[N+]=[N-] (stereo not given) .
> 100 µM

Name the recorded TGI for COc1cc(OC)cc(Oc2nc3cc(F)c(F)cc3nc2-c2ccccc2)c1 .
> 100 µM

----------
- System: MDA-MB-231 breast
- measurement_description: NCI tumour cell line growth inhibition, 48 h
reported_endpoint: GI50

Name the recorded GI50 for COc1ccc(OC)c(-c2cc(-c3ccccc3)nn2-c2ccc(S(=O)(=O)NC(C)=O)cc2)c1 .
3.09 µM

Name the recorded GI50 for O=C1/C(=C/c2ccc(Cl)cc2)CCCc2ccc(F)cc21 .
19.8 µM

Name the recorded GI50 for CCOC(=O)c1c(NC(=O)c2ccc(C(C)C)cc2)sc2c(CN(C)C)c(O)ccc12 .
1.95 µM

Name the recorded GI50 for Fc1cccc(COc2ccc(Nc3ncnc4sc(-c5ccco5)cc34)cc2Cl)c1 .
> 25 µM

Name the recorded GI50 for COc1ccc2nc(-c3ccccc3)cc(Nc3cccc(/C(C)=N\O)c3)c2c1 .
2.54 µM

Name the recorded GI50 for O=C(Nc1ccc(OC(F)(F)F)cc1)c1sccc1NCc1ccnc2ccccc12 .
1.98 µM

Name the recorded GI50 for COc1ccc(-c2cc(-c3ccc(Cl)cc3)c(C#N)c(=O)n2CCCCC(=O)Nc2ccccc2N)cc1 .
7.86 µM

Name the recorded GI50 for Cc1cc(N(CCNc2ccnc3cc(Cl)ccc23)Cc2ccc3c(c2)OCO3)nc(N2CCN(C)CC2)n1 .
1.77 µM

Name the recorded GI50 for C[C@]12CC[C@@H]3c4ccc(O)c([N+](=O)[O-])c4CC[C@H]3[C@@H]1CC[C@@H]2NS(=O)(=O)c1ccc(C(F)(F)F)cc1 .
1.49 µM

Name the recorded GI50 for CCN(c1ccc(CO)c(Cl)c1)C(C)c1ccc(F)cc1 (stereo unspecified) .
15.3 µM

Name the recorded GI50 for Nc1cc(N)c2nc(-c3ccccc3)c(Oc3ccc(F)cc3)nc2c1 .
3.87 µM

----------
- Tested on: NCI/ADR-RES ovarian
- measurement_description: NCI tumour cell line growth inhibition, 48 h
Please provide measured TGI for the entries that follow.
Give just the number in µM; leave the unit off.

Name the recorded TGI for C[C@]12CC[C@@H]3c4ccc(O)c([N+](=O)[O-])c4CC[C@H]3[C@@H]1CC[C@@H]2NS(=O)(=O)c1ccc(C(F)(F)F)cc1 .
4.7

Name the recorded TGI for CCOC(=O)c1c(NC(=O)c2ccc(C(C)C)cc2)sc2c(CN(C)C)c(O)ccc12 .
4.52

Name the recorded TGI for O=C1/C(=C/c2ccc(Cl)cc2)CCCc2ccc(F)cc21 .
73.5

Name the recorded TGI for O=C(O)C1=NN(c2ccc(S(=O)(=O)O)cc2)C2(C1)C(Cl)C(=O)N2c1nc2ccccc2s1 (centres undefined) .
56.2

----------
- System: HOP-62 NSCLC
- measurement_description: NCI tumour cell line growth inhibition, 48 h
reported_endpoint: TGI (µM)
Give just the number in µM; leave the unit off.

Name the recorded TGI for COc1ccc2c(c1)-c1c(c3cc(OC)ccc3n1CCN(C)C)CC2 .
29.9

Name the recorded TGI for CC(C)c1ccc2nc3ccc(C(=O)NCCN(C)C)cn3c(=O)c2c1 .
31.4

Name the recorded TGI for CN(C)CCCNc1cc(O)c2c(c1O)C(=O)c1ccccc1C2=O .
23.3

Name the recorded TGI for Cc1ccc(C(=O)Nc2ccc(CN3CCN(C)CC3)c(C(F)(F)F)c2)cc1C#Cc1cnc(N)c2ccc(F)cc12 .
3.44

Name the recorded TGI for N#C/C(=C\c1cccc(Br)c1)c1nc2ccccc2c(=O)[nH]1 .
62.7

Name the recorded TGI for O=P(OCc1ccccc1)(OCc1ccccc1)C(O)/C=C/c1ccccc1 (stereo not given) .
55.5

----------
- System: HCC-2998 colon
- measurement_description: NCI tumour cell line growth inhibition, 48 h
Please provide measured TGI for the entries that follow.

Any idea what TGI came out for Fc1cccc(COc2ccc(Nc3ncnc4sc(-c5ccco5)cc34)cc2Cl)c1 on HCC-2998 colon?
> 25 µM

Any idea what TGI came out for Cc1cc(S(=O)(=O)Nc2n[nH]c(Nc3ccccc3)n2)c(SCC(=O)O)cc1Cl on HCC-2998 colon?
> 100 µM

Any idea what TGI came out for COc1cc2cc(Oc3ccc(NC(=O)c4cccc(C(F)(F)F)c4)cc3)c(C)nc2cc1OC on HCC-2998 colon?
> 100 µM

Any idea what TGI came out for COc1ccc(OC/C(N=Cc2ccncc2)=N/NC(=O)c2ccncc2)cc1 on HCC-2998 colon?
> 100 µM

Any idea what TGI came out for CCc1nc(N)nc(N)c1-c1ccc([N+](=O)[O-])c(NCc2ccccc2)c1 on HCC-2998 colon?
36.7 µM

Any idea what TGI came out for CC12CC3(C)CC(C)(C1)CC(N=[N+]=[N-])(C2)C3 on HCC-2998 colon?
> 100 µM

Any idea what TGI came out for C[C@]12CC[C@@H]3c4ccc(O)c([N+](=O)[O-])c4CC[C@H]3[C@@H]1CC[C@@H]2NS(=O)(=O)c1ccc(C(F)(F)F)cc1 on HCC-2998 colon?
4.02 µM

Any idea what TGI came out for NC(Cc1[nH]nc2ccccc12)C(=O)O (stereo not given) on HCC-2998 colon?
> 100 µM

Any idea what TGI came out for COc1ccc2nc(-c3ccccc3)cc(Nc3cccc(/C(C)=N\O)c3)c2c1 on HCC-2998 colon?
> 100 µM

Any idea what TGI came out for Cc1c(C)c2cc3c(=O)ccoc3c(C)c2oc1=O on HCC-2998 colon?
> 100 µM

----------
- System: MALME-3M melanoma
- measurement_description: NCI tumour cell line growth inhibition, 48 h
reported_endpoint: TGI (µM)
Give just the number in µM; leave the unit off.

Name the recorded TGI for O=C1CC(c2ccccc2Cl)C2(C(=O)NC(=O)NC2=O)C(c2ccccc2Cl)C1 (stereo not given) .
72.4

Name the recorded TGI for O=CN1CCN(C(=O)c2ccco2)C1=S .
29.9

Name the recorded TGI for C/C(=N\O)c1ccc(Nc2cc(-n3nnc4ccccc43)nc3ccccc23)cc1 .
36.1

Name the recorded TGI for COc1ccc2c(c1)-c1c(c3cc(OC)ccc3n1CCN(C)C)CC2 .
31
